Source listed as paper PMC8893300.

Items are presented alongside their recorded EC50.
Biological target: human sweet taste receptor (hT1R2/hT1R3) (Homo sapiens, UniProt Q7RTX0+Q8TE23)
Construct: expressed in transfected cells
Sequence (Q8TE23 20-839): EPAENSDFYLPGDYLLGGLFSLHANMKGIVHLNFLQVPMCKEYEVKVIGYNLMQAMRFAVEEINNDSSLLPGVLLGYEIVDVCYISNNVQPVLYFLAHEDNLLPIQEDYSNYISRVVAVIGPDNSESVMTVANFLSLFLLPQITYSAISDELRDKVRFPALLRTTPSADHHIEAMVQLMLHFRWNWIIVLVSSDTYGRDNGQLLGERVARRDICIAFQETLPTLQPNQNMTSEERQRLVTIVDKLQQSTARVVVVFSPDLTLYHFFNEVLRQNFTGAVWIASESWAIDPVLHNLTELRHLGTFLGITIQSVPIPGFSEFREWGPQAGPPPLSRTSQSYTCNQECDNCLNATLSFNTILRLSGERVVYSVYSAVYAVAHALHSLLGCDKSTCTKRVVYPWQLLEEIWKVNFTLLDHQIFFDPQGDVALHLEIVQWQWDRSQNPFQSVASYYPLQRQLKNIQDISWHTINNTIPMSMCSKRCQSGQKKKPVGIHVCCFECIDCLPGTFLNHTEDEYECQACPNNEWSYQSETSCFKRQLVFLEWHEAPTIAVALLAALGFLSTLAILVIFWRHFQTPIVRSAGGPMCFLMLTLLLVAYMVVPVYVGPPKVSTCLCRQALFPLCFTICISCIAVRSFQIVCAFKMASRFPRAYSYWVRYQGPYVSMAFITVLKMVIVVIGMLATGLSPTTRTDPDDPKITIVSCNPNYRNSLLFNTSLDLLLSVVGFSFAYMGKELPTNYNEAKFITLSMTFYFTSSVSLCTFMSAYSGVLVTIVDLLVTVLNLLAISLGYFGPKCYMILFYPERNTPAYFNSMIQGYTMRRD
Sequence (Q7RTX0 21-852): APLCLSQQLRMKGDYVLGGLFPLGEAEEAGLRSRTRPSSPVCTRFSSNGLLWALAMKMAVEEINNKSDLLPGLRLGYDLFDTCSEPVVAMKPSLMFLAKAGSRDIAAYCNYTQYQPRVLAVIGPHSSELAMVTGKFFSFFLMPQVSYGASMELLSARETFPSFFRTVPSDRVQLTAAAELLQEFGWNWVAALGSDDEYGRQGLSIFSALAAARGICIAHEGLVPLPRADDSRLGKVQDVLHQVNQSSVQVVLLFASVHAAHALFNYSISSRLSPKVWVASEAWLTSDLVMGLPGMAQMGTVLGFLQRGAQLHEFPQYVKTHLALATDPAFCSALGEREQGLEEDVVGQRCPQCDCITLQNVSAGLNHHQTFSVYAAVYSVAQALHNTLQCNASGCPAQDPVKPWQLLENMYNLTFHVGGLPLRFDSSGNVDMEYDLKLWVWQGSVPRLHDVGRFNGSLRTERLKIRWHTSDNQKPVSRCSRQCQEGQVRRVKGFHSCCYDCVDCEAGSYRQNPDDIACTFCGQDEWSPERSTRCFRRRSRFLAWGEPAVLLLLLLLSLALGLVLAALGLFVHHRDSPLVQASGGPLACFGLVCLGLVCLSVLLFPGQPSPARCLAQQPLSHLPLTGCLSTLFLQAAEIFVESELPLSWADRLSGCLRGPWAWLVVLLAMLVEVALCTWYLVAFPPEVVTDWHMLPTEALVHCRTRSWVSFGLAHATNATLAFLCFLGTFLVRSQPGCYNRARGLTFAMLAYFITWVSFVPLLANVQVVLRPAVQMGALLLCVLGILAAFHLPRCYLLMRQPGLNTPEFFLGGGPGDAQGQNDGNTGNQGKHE
Assay: DMR assay (Epic reader) on R2/R3 U2OS cells, endogenous G proteins
Type: cell-based
Conditions: R2/R3 U2OS cells, peak DMR response; read-out: Activity in DMR assay pEC50 (converted)
Residues, ends and D or L forms follow the SMILES beside them.

{"columns": ["compound", "target", "EC50"],
 "data": [
  ["COC(=O)[C@H](Cc1ccccc1)NC(=O)[C@@H](N)CC(=O)O [Aspartame] (H-Asp-Phe-OMe)", "human sweet taste receptor (hT1R2/hT1R3) (Homo sapiens, UniProt Q7RTX0+Q8TE23)", "771 µM"],
  ["CCOc1ccc(NC(N)=O)cc1 [Dulcin]", "human sweet taste receptor (hT1R2/hT1R3) (Homo sapiens, UniProt Q7RTX0+Q8TE23)", "30.7 µM"],
  ["C[C@@H](NC(=O)[C@@H](N)CC(=O)O)C(=O)NC1C(C)(C)SC1(C)C [Alitame]", "human sweet taste receptor (hT1R2/hT1R3) (Homo sapiens, UniProt Q7RTX0+Q8TE23)", "32.5 µM"],
  ["CC1=CC(=O)NS(=O)(=O)O1 [acesulfame K]", "human sweet taste receptor (hT1R2/hT1R3) (Homo sapiens, UniProt Q7RTX0+Q8TE23)", "906 µM"],
  ["CC(C)Oc1ccc(NC(=S)NCc2cccs2)cc1 [S5227]", "human sweet taste receptor (hT1R2/hT1R3) (Homo sapiens, UniProt Q7RTX0+Q8TE23)", "2.07 µM"],
  ["C[C@H](NC(=Nc1ccc(C#N)cc1)NCC(=O)O)c1ccccc1 [SC-45647]", "human sweet taste receptor (hT1R2/hT1R3) (Homo sapiens, UniProt Q7RTX0+Q8TE23)", "4.09 µM"],
  ["CCCOc1ccc([N+](=O)[O-])cc1N [P-4000]", "human sweet taste receptor (hT1R2/hT1R3) (Homo sapiens, UniProt Q7RTX0+Q8TE23)", "3.78 µM"]
]}

---

Target: human sweet taste receptor (hT1R2/hT1R3) coupled to Gα15 (Homo sapiens, UniProt Q7RTX0+Q8TE23)
Construct: expressed in transfected cells
Sequence (Q8TE23 20-839): as the sequence (Q8TE23 20-839) above
Sequence (Q7RTX0 21-852): as the sequence (Q7RTX0 21-852) above
Assay: FLIPR calcium mobilization assay, R2/R3 U2OS cells transduced with Gα15 baculovirus
Type: cell-based
Conditions: Gα15; top asymptote of dose-response normalized to 1 mM sucralose
Marks after values point to notes of the source that are not given here. Residues, ends and D or L forms follow the SMILES beside them.
measurement.label: Activity in FLIPR assay Emax

{"columns": ["compound", "measurement.label", "assay.result"],
 "data": [
  ["CCCOc1ccc([N+](=O)[O-])cc1N", "Activity in FLIPR assay Emax", "164****"],
  ["COC(=O)[C@H](Cc1ccccc1)NC(=O)[C@@H](N)CC(=O)O [Aspartame] (H-Asp-Phe-OMe)", "Activity in FLIPR assay Emax", 106],
  ["OC[C@H]1O[C@H](O[C@]2(CCl)O[C@H](CCl)[C@@H](O)[C@@H]2O)[C@H](O)[C@@H](O)[C@H]1Cl", "Activity in FLIPR assay Emax", 104],
  ["O=C1NS(=O)(=O)c2ccccc21", "Activity in FLIPR assay Emax", "90****"],
  ["CC(C)Oc1ccc(NC(=S)NCc2ccc[nH]2)cc1", "Activity in FLIPR assay Emax", "181****"],
  ["Cc1cc(C)c2c(c1)[C@H](NC(=O)c1conc1C)CCC2", "Activity in FLIPR assay Emax", "159****"],
  ["COC(=O)[C@H](Cc1ccccc1)NC(=O)[C@H](CC(=O)O)NC(=O)Nc1ccc(C#N)cc1", "Activity in FLIPR assay Emax", 105],
  ["C[C@@H](NC(=O)[C@@H](N)CC(=O)O)C(=O)NC1C(C)(C)SC1(C)C", "Activity in FLIPR assay Emax", 100],
  ["CC(C)Oc1ccc(NC(=S)NCc2cccs2)cc1", "Activity in FLIPR assay Emax", "177****"],
  ["CC1=CC(=O)NS(=O)(=O)O1", "Activity in FLIPR assay Emax", "73****"],
  ["CCOc1ccc(NC(N)=O)cc1", "Activity in FLIPR assay Emax", "87****"],
  ["COC(=O)[C@H](Cc1ccccc1)NC(=O)[C@H](CC(=O)O)NCCC(C)(C)C", "Activity in FLIPR assay Emax", "116****"],
  ["C=C1C[C@@]23CC[C@H]4[C@@](C)(CCC[C@@]4(C)C(=O)O[C@@H]4O[C@H](CO)[C@@H](O)[C@H](O)[C@H]4O)[C@@H]2CC[C@]1(O[C@@H]1O[C@H](CO)[C@@H](O)[C@H](O)[C@H]1O[C@@H]1O[C@H](CO)[C@@H](O)[C@H](O)[C@H]1O)C3 [Stevioside]", "Activity in FLIPR assay Emax", 102],
  ["COCc1cncc(-c2ccc(C(C)(C)C(=O)NCC(C)C)cc2)n1", "Activity in FLIPR assay Emax", "170****"],
  ["C[C@H](NC(=Nc1ccc(C#N)cc1)NCC(=O)O)c1ccccc1", "Activity in FLIPR assay Emax", "98**"]
]}

---

Target: human sweet taste receptor (hT1R2/hT1R3) coupled to Gα15 (Homo sapiens, UniProt Q7RTX0+Q8TE23)
Construct: expressed in transfected cells
Experiment: FLIPR calcium mobilization assay, R2/R3 U2OS cells transduced with Gα15 baculovirus
Assay type: cell-based
Settings: FLIPR-Gα15; operational model, logR minus sucralose logR
The label depends only on ΔlogR FLIPR Mean: T if it is at least 2, F if it is smaller.

{"columns": ["compound", "assigned.class"],
 "data": [
  ["CC(C)Oc1ccc(NC(=S)NCc2cccs2)cc1", "T"],
  ["CC(C)Oc1ccc(NC(=S)NCc2ccc[nH]2)cc1", "T"],
  ["C[C@@H](NC(=O)[C@@H](N)CC(=O)O)C(=O)NC1C(C)(C)SC1(C)C", "F"],
  ["Cc1cc(C)c2c(c1)[C@H](NC(=O)c1conc1C)CCC2", "T"],
  ["COCc1cncc(-c2ccc(C(C)(C)C(=O)NCC(C)C)cc2)n1", "T"],
  ["CCCOc1ccc([N+](=O)[O-])cc1N", "F"],
  ["CC1=CC(=O)NS(=O)(=O)O1", "F"],
  ["C=C1C[C@@]23CC[C@H]4[C@@](C)(CCC[C@@]4(C)C(=O)O[C@@H]4O[C@H](CO)[C@@H](O)[C@H](O)[C@H]4O)[C@@H]2CC[C@]1(O[C@@H]1O[C@H](CO)[C@@H](O)[C@H](O)[C@H]1O[C@@H]1O[C@H](CO)[C@@H](O)[C@H](O)[C@H]1O)C3 [Stevioside]", "F"]
]}

---

Target: human sweet taste receptor (hT1R2/hT1R3) coupled to Gα15 (Homo sapiens, UniProt Q7RTX0+Q8TE23)
Construct: expressed in transfected cells
Test: FLIPR calcium mobilization assay, R2/R3 U2OS cells transduced with Gα15 baculovirus
Format: cell-based
Details: R2/R3 U2OS cells expressing Gα15; read-out: Activity in FLIPR assay pEC50 (converted)
Protocol: The Gα15 coding sequence was inserted in the HindIII-NotI sites and recombinant virus was generated using the Bac-to-Bac system (Life Technologies). Virus was further amplified by propagation in Sf9 cells grown in suspension using Sf900-II media. Virus titers were determined by plaque assay on Sf9 cells. […] This value, that we termed pEC50Ratio (sucralose) or pEC50R (sucralose), was calculated with EC50 values obtained in the two assay systems. […]
Residues, ends and D or L forms follow the SMILES beside them.
EC50 reference
measurement.label: EC50 (nM)

{"columns": ["compound", "measurement.label", "assay.result"],
 "data": [
  ["OC[C@H]1O[C@H](O[C@]2(CCl)O[C@H](CCl)[C@@H](O)[C@@H]2O)[C@H](O)[C@@H](O)[C@H]1Cl", "EC50", 69300],
  ["COC(=O)[C@H](Cc1ccccc1)NC(=O)[C@@H](N)CC(=O)O [Aspartame] (H-Asp-Phe-OMe)", "EC50", 352000],
  ["CC(C)Oc1ccc(NC(=S)NCc2cccs2)cc1", "EC50", 335],
  ["C[C@H](NC(=Nc1ccc(C#N)cc1)NCC(=O)O)c1ccccc1", "EC50", 2280],
  ["CCCOc1ccc([N+](=O)[O-])cc1N", "EC50", 2120],
  ["COC(=O)[C@H](Cc1ccccc1)NC(=O)[C@H](CC(=O)O)NC(=O)Nc1ccc(C#N)cc1", "EC50", 4620],
  ["CC(C)Oc1ccc(NC(=S)NCc2ccc[nH]2)cc1", "EC50", 74.5]
]}
